Biological target: human NR1/NR2B (Homo sapiens (Human))
Assay: NR2B antagonist activity (Fluo-4 calcium influx assay)
Format: cell-based
Conditions: read-out: hNR2B IC50
quantity measured: pIC50
To interpret pIC50, take it as minus log10 of a concentration measured in moles per litre.

Prompt line: Form field - read-out: pIC50; system: human NR1/NR2B (Homo sapiens (Human)); submitted item: `Cc1ccc(C(F)(F)CN2CCC(Nc3ncnc4[nH]ccc34)CC2)nc1`
Response line: 7.46

====

pIC50 listing for selected compounds.
Biological target: human NR1/NR2A (Homo sapiens (Human), UniProt Q05586+Q12879)
Sequence (Q12879 23-1464, other chains not shown): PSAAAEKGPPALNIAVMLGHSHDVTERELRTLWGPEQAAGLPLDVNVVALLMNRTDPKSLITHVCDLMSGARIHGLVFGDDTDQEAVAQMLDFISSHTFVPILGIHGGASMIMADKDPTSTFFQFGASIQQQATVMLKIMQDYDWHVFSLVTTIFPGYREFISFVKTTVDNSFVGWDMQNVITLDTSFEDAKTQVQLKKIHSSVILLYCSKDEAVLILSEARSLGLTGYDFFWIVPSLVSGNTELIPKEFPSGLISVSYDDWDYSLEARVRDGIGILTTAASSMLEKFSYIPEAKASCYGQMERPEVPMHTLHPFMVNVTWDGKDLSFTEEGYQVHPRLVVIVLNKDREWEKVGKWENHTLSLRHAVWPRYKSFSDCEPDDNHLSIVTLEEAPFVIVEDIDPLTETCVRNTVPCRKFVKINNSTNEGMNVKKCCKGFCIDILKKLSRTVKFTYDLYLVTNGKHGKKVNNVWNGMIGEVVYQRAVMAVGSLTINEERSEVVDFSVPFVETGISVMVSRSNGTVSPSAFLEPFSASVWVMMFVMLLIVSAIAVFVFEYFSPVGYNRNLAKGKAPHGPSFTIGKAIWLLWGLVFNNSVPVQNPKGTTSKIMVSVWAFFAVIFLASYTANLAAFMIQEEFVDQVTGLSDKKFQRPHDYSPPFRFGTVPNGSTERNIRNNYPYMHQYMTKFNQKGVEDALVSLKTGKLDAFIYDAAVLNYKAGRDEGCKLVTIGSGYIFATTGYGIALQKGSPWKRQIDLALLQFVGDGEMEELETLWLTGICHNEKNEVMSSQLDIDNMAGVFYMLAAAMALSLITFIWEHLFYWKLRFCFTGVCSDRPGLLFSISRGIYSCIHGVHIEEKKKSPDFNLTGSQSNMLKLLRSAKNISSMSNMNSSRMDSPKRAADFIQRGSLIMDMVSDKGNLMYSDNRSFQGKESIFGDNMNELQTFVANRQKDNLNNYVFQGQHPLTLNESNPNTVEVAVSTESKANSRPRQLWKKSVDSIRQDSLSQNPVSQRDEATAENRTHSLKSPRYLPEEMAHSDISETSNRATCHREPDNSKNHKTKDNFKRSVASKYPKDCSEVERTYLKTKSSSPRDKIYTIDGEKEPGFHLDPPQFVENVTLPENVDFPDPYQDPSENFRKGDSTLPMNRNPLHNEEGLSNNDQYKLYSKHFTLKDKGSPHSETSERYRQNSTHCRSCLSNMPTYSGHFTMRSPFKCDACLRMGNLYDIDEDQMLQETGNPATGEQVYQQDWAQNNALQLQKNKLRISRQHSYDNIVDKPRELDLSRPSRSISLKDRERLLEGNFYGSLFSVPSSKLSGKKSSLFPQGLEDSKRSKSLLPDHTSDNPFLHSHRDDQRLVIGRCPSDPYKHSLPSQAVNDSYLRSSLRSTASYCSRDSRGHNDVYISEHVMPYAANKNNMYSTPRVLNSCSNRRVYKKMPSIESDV
Assay: NR2A activity (Fluo-4 calcium influx assay)
Type: cell-based
Conditions: HEK293 cells stably expressing human NR1/NR2A; glutamate 100 μM, glycine 50 μM; read-out: NR2A IC50
pIC50: −log10 of the molar value.

molecule	pIC50
FC(F)c1ccc(C(F)(F)CN2CCC(Nc3ncnc4[nH]ccc34)CC2)cc1	< 5.00

Please look at the following compound next.
Prompt line: Form field - read-out: pIC50; system: human NR1/NR2A (Homo sapiens (Human), UniProt Q05586+Q12879); submitted item: `FC(F)(F)c1ccc(C(F)(F)CN2CCC(Nc3ncnc4[nH]ccc34)CC2)cc1`
Response line: < 5.00

====

Biological target: human NR1/NR2B (Homo sapiens (Human), UniProt Q13224)
Sequence (Q13224 27-1484, other chains not shown): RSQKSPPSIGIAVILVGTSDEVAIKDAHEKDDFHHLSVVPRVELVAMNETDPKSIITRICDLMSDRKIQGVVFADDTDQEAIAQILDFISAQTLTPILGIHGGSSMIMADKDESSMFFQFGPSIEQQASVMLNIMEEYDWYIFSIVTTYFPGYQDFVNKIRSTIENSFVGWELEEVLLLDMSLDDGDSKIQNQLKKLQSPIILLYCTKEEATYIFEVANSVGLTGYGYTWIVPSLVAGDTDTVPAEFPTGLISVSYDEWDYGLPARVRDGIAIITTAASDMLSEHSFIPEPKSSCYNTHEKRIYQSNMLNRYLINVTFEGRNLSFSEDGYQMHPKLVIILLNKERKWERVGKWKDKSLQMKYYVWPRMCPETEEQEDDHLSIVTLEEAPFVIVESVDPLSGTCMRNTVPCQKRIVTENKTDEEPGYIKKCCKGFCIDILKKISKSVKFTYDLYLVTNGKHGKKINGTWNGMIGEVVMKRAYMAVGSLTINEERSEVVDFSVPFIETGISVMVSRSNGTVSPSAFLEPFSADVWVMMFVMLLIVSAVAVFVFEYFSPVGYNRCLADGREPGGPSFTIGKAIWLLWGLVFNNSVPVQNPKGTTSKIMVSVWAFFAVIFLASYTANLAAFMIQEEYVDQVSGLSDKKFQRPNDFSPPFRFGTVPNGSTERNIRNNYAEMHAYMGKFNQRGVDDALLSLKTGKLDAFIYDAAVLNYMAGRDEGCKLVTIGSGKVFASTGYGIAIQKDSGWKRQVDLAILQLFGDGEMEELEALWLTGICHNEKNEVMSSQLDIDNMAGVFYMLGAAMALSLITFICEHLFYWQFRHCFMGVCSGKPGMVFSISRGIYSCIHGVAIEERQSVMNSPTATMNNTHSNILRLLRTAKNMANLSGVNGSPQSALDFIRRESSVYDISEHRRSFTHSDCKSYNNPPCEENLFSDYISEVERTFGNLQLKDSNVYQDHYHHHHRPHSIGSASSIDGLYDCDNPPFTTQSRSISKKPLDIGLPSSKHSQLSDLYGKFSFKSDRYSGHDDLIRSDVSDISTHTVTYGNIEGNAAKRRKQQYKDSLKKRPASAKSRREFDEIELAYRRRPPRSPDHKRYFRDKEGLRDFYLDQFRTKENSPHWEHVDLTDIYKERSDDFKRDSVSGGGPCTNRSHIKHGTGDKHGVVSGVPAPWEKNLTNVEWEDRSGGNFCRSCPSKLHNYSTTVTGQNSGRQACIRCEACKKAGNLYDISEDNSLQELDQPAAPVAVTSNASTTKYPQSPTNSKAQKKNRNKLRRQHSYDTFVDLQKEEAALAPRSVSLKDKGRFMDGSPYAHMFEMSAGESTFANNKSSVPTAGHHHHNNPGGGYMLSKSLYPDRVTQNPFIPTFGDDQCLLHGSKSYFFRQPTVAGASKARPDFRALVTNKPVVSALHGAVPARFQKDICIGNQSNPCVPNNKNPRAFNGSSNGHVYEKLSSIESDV
Test: NR2B antagonist activity (Fluo-4 calcium influx assay)
Assay type: cell-based
Conditions: HEK293 cells stably expressing human NR1/NR2B; glutamate 100 μM, glycine 50 μM; read-out: NR2B IC50
pIC50 listing for selected compounds.
To interpret pIC50, take it as minus log10 of a concentration measured in moles per litre.

Prompt line: Entry under review: `FC(F)(F)Oc1ccc(C(F)(F)CN2CCC(Nc3ncnc4[nH]ccc34)CC2)nc1` . Reported pIC50?
Response line: 7.37

Prompt line: Entry under review: `Fc1cc(C(F)(F)F)cnc1C(F)(F)CN1CCC(Nc2ncnc3[nH]ccc23)CC1` . Reported pIC50?
Response line: 7.08

Prompt line: Entry under review: `FC(F)c1ccc(C(F)(F)CN2CCC(Nc3ncnc4[nH]ccc34)CC2)nc1` . Reported pIC50?
Response line: 7.51

Prompt line: Entry under review: `FC(F)(F)c1ccc(C(F)(F)CN2CCC(Nc3ncnc4[nH]ccc34)CC2)nc1` . Reported pIC50?
Response line: 7.52

Prompt line: Entry under review: `FC(F)(F)c1ccc(C(F)(F)CN2CCC(Nc3ncnc4[nH]ccc34)CC2)cc1` . Reported pIC50?
Response line: 7.19

====

Biological target: UniProt:Q12809
Sequence (Q12809 whole entry): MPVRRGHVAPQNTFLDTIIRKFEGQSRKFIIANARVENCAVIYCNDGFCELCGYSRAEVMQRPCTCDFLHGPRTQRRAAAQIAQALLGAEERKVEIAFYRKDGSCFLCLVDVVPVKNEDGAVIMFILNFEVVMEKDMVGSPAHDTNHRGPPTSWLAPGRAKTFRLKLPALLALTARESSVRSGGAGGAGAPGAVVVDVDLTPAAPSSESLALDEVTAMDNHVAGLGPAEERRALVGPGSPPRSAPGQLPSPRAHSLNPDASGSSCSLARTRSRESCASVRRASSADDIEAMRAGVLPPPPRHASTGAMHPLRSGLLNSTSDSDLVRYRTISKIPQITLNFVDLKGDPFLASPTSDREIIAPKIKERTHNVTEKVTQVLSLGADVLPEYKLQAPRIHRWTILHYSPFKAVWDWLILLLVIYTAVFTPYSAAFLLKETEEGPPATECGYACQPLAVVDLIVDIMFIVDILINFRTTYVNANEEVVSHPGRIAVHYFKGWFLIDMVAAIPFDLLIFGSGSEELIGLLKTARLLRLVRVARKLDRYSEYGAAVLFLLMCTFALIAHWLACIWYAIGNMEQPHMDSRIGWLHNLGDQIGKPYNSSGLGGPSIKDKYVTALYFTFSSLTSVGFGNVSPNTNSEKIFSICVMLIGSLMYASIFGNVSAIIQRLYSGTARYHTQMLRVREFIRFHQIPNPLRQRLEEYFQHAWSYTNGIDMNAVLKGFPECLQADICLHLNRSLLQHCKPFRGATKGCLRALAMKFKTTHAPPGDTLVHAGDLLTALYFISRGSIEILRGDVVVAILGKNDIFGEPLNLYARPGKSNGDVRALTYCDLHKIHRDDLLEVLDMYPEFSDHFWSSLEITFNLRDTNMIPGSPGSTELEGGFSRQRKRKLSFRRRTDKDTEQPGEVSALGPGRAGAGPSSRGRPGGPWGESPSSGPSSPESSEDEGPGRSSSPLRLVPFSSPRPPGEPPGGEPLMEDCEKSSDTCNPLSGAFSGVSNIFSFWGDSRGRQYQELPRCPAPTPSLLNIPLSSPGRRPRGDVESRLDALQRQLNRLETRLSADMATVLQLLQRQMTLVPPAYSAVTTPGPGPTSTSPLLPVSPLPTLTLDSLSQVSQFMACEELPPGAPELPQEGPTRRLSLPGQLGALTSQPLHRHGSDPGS
Settings: pH 7.35
IC50 listing for selected compounds.
Give the quantity in µM, number only.

// below: answered compounds
compound	unit string	IC50
FC(F)(CN1CCC(Nc2ncnc3[nH]ccc23)CC1)c1ccc(Cl)cn1 [Compound C-3]	µM	7
Cc1ccc(C(F)(F)CN2CCC(Nc3ncnc4[nH]ccc34)CC2)cn1 [Compound C-128]	µM	28
Cc1cnc(C(F)(F)CN2CCC(Nc3ncnc4[nH]ccc34)CC2)cn1 [Compound C-230]	µM	13.8
FC(F)(F)c1ccc(C(F)(F)CN2CCC(Nc3ncnc4[nH]ccc34)CC2)nc1 [Compound C-5]	µM	9.5
Cc1ccc(C(F)(F)CN2CCC(Nc3ncnc4[nH]ccc34)CC2)nc1 [Compound C-4]	µM	11.4

Please look at the following compound next.
Prompt line: Form field - read-out: IC50; system: UniProt:Q12809; submitted item: Fc1ccc(C(F)(F)CN2CCC(Nc3ncnc4[nH]ccc34)CC2)cc1 [Compound C-175]
Response line: 4.5

====

Biological target: human NR1/NR2B (Homo sapiens (Human), UniProt Q13224)
Test: NR2B antagonist activity (Fluo-4 calcium influx assay)
Assay type: cell-based
Details: read-out: hNR2B IC50
pIC50 listing for selected molecules.
To interpret pIC50, take it as minus log10 of a concentration measured in moles per litre.

// below: answered molecules
molecule	pIC50
Fc1ccc(C(F)(F)CN2CCC(Nc3ncnc4[nH]ccc34)CC2)cc1 [Compound C-175]	7.66
Cc1ccc(C(F)(F)CN2CCC(Nc3ncnc4[nH]ccc34)CC2)cn1 [Compound C-128]	7.05

Please look at the following molecule next.
Prompt line: Entry under review: Cc1cnc(C(F)(F)CN2CCC(Nc3ncnc4[nH]ccc34)CC2)cn1 [Compound C-230] . Reported pIC50?
Response line: 7.06
